System: P. falciparum infected erythrocytes
TEST SUMMARY: P. falciparum growth inhibition assay ([3H]hypoxanthine incorporation)
Type: cell-based, Plasmodium falciparum
TEST CONTEXT: Plasmodium falciparum, Erythrocyte, hydrochloride salt; read-out: average PfIC50 of the hydrochloride salt
Counter-ions that a name gives are not always drawn.
MEASURED ENDPOINT: IC50 (nM)

compound="N[C@@H](COc1ccc(C(=O)N2CC[C@@H](c3ccc(F)cc3)C2)cc1)Cn1ncnn1 [Example 50, Hydrochloride]" measurement_unit=nM readout_number=219

I: N[C@H](COc1ccc(C(=O)N2CC[C@H](c3ccc(F)cc3)C2)cc1)Cn1ncnn1 [Example 49, Hydrochloride]
II: N[C@@H](COc1ccc(C(=O)N2CC[C@H](c3ccc(F)cc3)C2)cc1)Cn1ncnn1
QUERY: Return label of the item with the larger IC50. Candidates: I , II . In your reply, give the label of the chosen option.
RESULT: I
(I: 310 nM, II: 30 nM)

* * *

List of pIC50 values.
Test system: P. falciparum infected erythrocytes
TEST SUMMARY: P. falciparum growth inhibition assay ([3H]hypoxanthine incorporation)
Format: cell-based, Plasmodium falciparum
TEST CONTEXT: [3H]hypoxanthine incorporation, 0.5% parasitemia, 2% hematocrit, 48 h; read-out: PfIC50 Media
Protocol: P. falciparum Growth Inhibition Assay. The sensitivity of P. falciparum infected erythrocytes to the compound was determined in duplicate using the [3H]hypoxanthine incorporation method with an inoculum of 0.5% parasitemia (ring stage) and 2% hematocrit. The parasites were grown in RPMI 1640, 25 mM HEPES and supplemented with 5% Albumax. […] Filters are dried and melt on scintillator sheets and the bound radioactivity is quantified by use of a Wallac Microbeta Trilux (Model 1450 LS—Perkin Elmer). […]
pIC50: −log10 of the molar value.

Answered examples (5):
compound="O=C(c1ccc(OCC(F)Cn2cnnn2)cc1)N1CC[C@H](c2ccc(F)cc2)C1 (single isomer, unassigned) [Example 3b]" measured_endpoint=pIC50 result="> 7.00"
compound="COc1ccc(C2CCN(C(=O)c3ccc(OC[C@H](O)Cn4ncnn4)cc3)C2)cc1 (single isomer, unassigned) [Example 44b]" measured_endpoint=pIC50 result="6.00 to 6.30"
compound="O=C(c1ccc(OC[C@H](O)Cn2ncnn2)cc1)N1CCC(c2ccccc2F)C1 (single isomer, unassigned) [Example 40b]" measured_endpoint=pIC50 result="6.30 to 7.00"
compound="O=C(c1ccc(OCC(O)Cc2cscn2)cc1)N1CC[C@H](c2ccc(F)cc2)C1 (single isomer, unassigned) [Example 35b]" measured_endpoint=pIC50 result="6.30 to 7.00"
compound="O=C(c1ccc(OC[C@H](O)Cn2ncnn2)cc1)N1CCC(c2cccc(F)c2)C1 (single isomer, unassigned) [Example 41a]" measured_endpoint=pIC50 result="> 7.00"

QUERY: Tell me pIC50 reported for CC(COc1ccc(C(=O)N2CC[C@H](c3ccc(F)cc3)C2)cc1)Cn1cnnn1 (single isomer, unassigned) [Example 1b]
RESULT: > 7.00

* * *

Tested on: P. falciparum infected erythrocytes
TEST SUMMARY: P. falciparum growth inhibition assay ([3H]hypoxanthine incorporation)
Format: cell-based, Plasmodium falciparum
TEST CONTEXT: Plasmodium falciparum, Erythrocyte, [3H]hypoxanthine incorporation, 0.5% parasitemia, 2% hematocrit, 48 h; read-out: PfIC50 Media
Counter-ions that a name gives are not always drawn.
MEASURED ENDPOINT: IC50

Answered examples (5):
compound="Cn1ccc(CC(O)COc2ccc(C(=O)N3CC[C@H](c4ccc(F)cc4)C3)cc2)n1 (single isomer, unassigned) [Example 36a]" target_of_assay="P. falciparum infected erythrocytes" result="< 100 nM"
compound="O=C(c1ccc(OC[C@H](O)Cn2cncn2)cc1)N1CC[C@H](c2ccc(F)cc2)C1 [Example 15]" target_of_assay="P. falciparum infected erythrocytes" result="< 100 nM"
compound="N[C@@H](COc1ccc(C(=O)N2CC[C@@H](c3ccc(F)cc3)C2)cc1)Cn1ncnn1 [Example 50, Hydrochloride]" target_of_assay="P. falciparum infected erythrocytes" result="100 to 500 nM"
compound="CC(COc1ccc(C(=O)N2CC[C@H](c3ccc(F)cc3)C2)cc1)Cn1cnnn1 (single isomer, unassigned) [Example 1a]" target_of_assay="P. falciparum infected erythrocytes" result="100 to 500 nM"
compound="CC(C)(COc1ccc(C(=O)N2CC[C@H](c3ccc(F)cc3)C2)cc1)Cn1cnnn1 [Example 2]" target_of_assay="P. falciparum infected erythrocytes" result="500 to 1000 nM"

QUERY: Tell me IC50 reported for Cc1nnn(C[C@@H](O)COc2ccc(C(=O)N3CC[C@H](c4ccc(F)cc4)C3)cc2)n1 [Example 22]
RESULT: < 100 nM

QUERY: Tell me IC50 reported for O=C(c1ccc(OCC(F)(F)Cn2cnnn2)cc1)N1CC[C@H](c2ccc(F)cc2)C1 [Example 4]
RESULT: < 100 nM

* * *

Tested on: P. falciparum infected erythrocytes
TEST SUMMARY: P. falciparum growth inhibition assay ([3H]hypoxanthine incorporation)
Assay type: cell-based, Plasmodium falciparum
TEST CONTEXT: Plasmodium falciparum, Erythrocyte, [3H]hypoxanthine incorporation, 0.5% parasitemia, 2% hematocrit, 48 h; read-out: PfIC50 Media
pIC50: −log10 of the molar value. Where a name gives a salt, the structure may show the parent alone.
MEASURED ENDPOINT: pIC50

Answered examples (3):
compound="N[C@@H](COc1ccc(C(=O)N2CC[C@H](c3ccc(F)cc3)C2)cc1)Cn1cncn1 [Example 52, Hydrochloride]" target_of_assay="P. falciparum infected erythrocytes" measured_endpoint=pIC50 result="6.30 to 7.00"
compound="O=C(c1ccc(OC[C@H](O)Cn2cnnn2)cc1F)N1CC[C@H](c2ccc(F)cc2)C1 [Example 26]" target_of_assay="P. falciparum infected erythrocytes" measured_endpoint=pIC50 result="6.30 to 7.00"
compound="O=C(c1ccc(OC[C@H](O)Cn2ccnc2)cc1)N1CC[C@H](c2ccc(F)cc2)C1 [Example 20]" target_of_assay="P. falciparum infected erythrocytes" measured_endpoint=pIC50 result="> 7.00"

Note: attention shifts to another entry.
QUERY: Tell me pIC50 reported for O=C(c1ccc(OC[C@H](O)Cn2cncn2)cc1)N1CC[C@H](c2ccc(Cl)cc2)C1 [Example 30]
RESULT: > 7.00

* * *

List of pIC50 values.
System: P. falciparum infected erythrocytes
TEST SUMMARY: P. falciparum growth inhibition assay ([3H]hypoxanthine incorporation)
Type: cell-based, Plasmodium falciparum
TEST CONTEXT: Plasmodium falciparum, Erythrocyte; read-out: average PfIC50
pIC50: −log10 of the molar value.

Answered examples (5):
molecule="O=C(c1ccc(OC[C@H](O)Cn2ncnn2)cc1F)N1CC[C@H](c2ccc(F)cc2)C1 [Example 27]" measured_endpoint=pIC50 result="≥ 7.30"
molecule="O=C(c1ccc(OCC(O)Cc2cscn2)cc1)N1CC[C@H](c2ccc(F)cc2)C1 (single isomer, unassigned) [Example 35a]" measured_endpoint=pIC50 result="≥ 7.30"
molecule="O=C(c1ccc(OC[C@H](O)Cn2cnnn2)cc1)N1CC[C@H](c2ccc(F)cc2)C1 [Example 5]" measured_endpoint=pIC50 result="≥ 7.30"
molecule="O=C(c1ccc(OC[C@@H](F)Cn2ncnn2)cc1)N1CC[C@H](c2ccc(F)cc2)C1 [Example 12]" measured_endpoint=pIC50 result="≥ 7.30"
molecule="O=C(c1ccc(OC[C@H](O)Cn2cncn2)cc1)N1CC[C@H](c2ccc(F)cc2)C1 [Example 15]" measured_endpoint=pIC50 result="≥ 7.30"

QUERY: Tell me pIC50 reported for O=C(c1ccc(OC[C@H](O)Cn2nccn2)cc1)N1CC[C@H](c2ccc(Cl)cc2)C1 [Example 31]
RESULT: ≥ 7.30

QUERY: Tell me pIC50 reported for O=C(c1ccc(OCC(F)(F)Cn2cnnn2)cc1)N1CC[C@H](c2ccc(F)cc2)C1 [Example 4]
RESULT: ≥ 7.30

QUERY: Tell me pIC50 reported for O=C(c1ccc(OC[C@H](O)Cn2ncnn2)cc1)N1CC[C@H](c2ccc(F)cc2)C1 [Example 7]
RESULT: ≥ 7.30

QUERY: Tell me pIC50 reported for O=C(c1ccc(OCC(F)Cn2cnnn2)cc1)N1CC[C@H](c2ccc(F)cc2)C1 (single isomer, unassigned) [Example 3b]
RESULT: ≥ 7.30

QUERY: Tell me pIC50 reported for O=C(c1ccc(OC[C@@H](O)Cn2ncnn2)cc1)N1CC[C@@H](c2ccc(F)cc2)C1 [Example 14]
RESULT: 5.92

QUERY: Tell me pIC50 reported for O=C(c1ccc(OC[C@@H](O)Cn2ncnn2)cc1)N1CC[C@H](c2ccc(F)cc2)C1 [Example 8]
RESULT: 7.28

QUERY: Tell me pIC50 reported for O=C(c1ccc(OC[C@H](O)Cn2ccnn2)cc1)N1CC[C@H](c2ccc(Cl)cc2)C1 [Example 32]
RESULT: ≥ 7.30
